# Test System: human carbonic anhydrase 2 (wild-type hCAII) (Homo sapiens, UniProt P00918 4-259)
# Procedure Details: cell-based or functional assay
Ends that are not written are not given here. M65 = not defined here; M67 = not defined here; M75 = not defined here; M76 = not defined here; M88 = not defined here
Property Name: NTM-AAEIR IC50 (µM), colorimetric IC50 assay (pNPA hydrolysis by wild-type hCAII)
One number for each entry, in µM.

Field: NTM-AAEIR IC50 (µM), colorimetric IC50 assay (pNPA hydrolysis by wild-type hCAII). Fill in for each record below.
1. M88-AAEIR (reading uncertain; also: printed as M88-AAEIR) [M88-AAEIR]
2. M65-AAEIR (reading uncertain; also: printed as M65-AAEIR) [M65-AAEIR]
3. M67-AAEIR (reading uncertain; also: printed as M67-AAEIR) [M67-AAEIR]
4. M76-AAEIR (reading uncertain; also: printed as M76-AAEIR) [M76-AAEIR]

1: 0.095; 2: 0.515; 3: 0.073; 4: 0.077

Endpoint output: NTM-AAEIR IC50 (µM), colorimetric IC50 assay (pNPA hydrolysis by wild-type hCAII) of M75-AAEIR (reading uncertain; also: printed as M75-AAEIR) [M75-AAEIR] . Value? 0.067
